Readings of kon for the listed compounds
# assayed.system: human STING (Homo sapiens, UniProt Q86WV6)
# Construct: N-terminal cysteine (thiol coupling handle)
# Sequence (Q86WV6 whole entry): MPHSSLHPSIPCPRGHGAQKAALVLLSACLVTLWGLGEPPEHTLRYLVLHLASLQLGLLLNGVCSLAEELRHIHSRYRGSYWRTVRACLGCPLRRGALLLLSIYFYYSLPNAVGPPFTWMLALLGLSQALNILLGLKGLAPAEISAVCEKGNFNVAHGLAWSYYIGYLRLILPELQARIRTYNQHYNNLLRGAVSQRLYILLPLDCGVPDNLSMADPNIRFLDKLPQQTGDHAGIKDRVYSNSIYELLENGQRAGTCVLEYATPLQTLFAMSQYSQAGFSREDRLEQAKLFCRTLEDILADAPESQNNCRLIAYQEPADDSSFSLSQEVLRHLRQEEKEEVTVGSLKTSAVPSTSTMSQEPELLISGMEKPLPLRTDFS
# test: surface plasmon resonance (SPR)-based hSTING binding assay
# conditions: SPR, hSTING immobilized on CM5 chip, 25 °C; read-out: Ka
quantity.measured: kon (M⁻¹ s⁻¹)

[
  {
    "compound": "Cc1cn([C@@H]2O[C@@H]3COP(=O)(O)O[C@@H]4[C@H](O)[C@@H](COP(=O)(O)O[C@H]3[C@H]2O)O[C@H]4n2cnc3c(=O)[nH]c(N)nc32)c(=O)[nH]c1=O",
    "units": "M⁻¹ s⁻¹",
    "number": 349
  },
  {
    "compound": "Cc1cn(C2OC3COP(=O)(O)OC4C(O)C(COP(=O)(O)OC3C2O)OC4n2cnc3c(=O)[nH]c(N)nc32)c(=O)nc1N (centres unmarked)",
    "units": "M⁻¹ s⁻¹",
    "number": 152
  }
]
